tested on: MDA-MB-468 breast; experiment: NCI-60 one-dose screen, 48 h; conditions: 10 µM unless noted
Compounds without any hit were thinned out: in the full panel of roughly 83,000, 20% have a hit. Calls of active or inactive are those of the source. The calls were made as follows: active = growth percent below 10; inactive = the rest.
Classes to choose from: active, inactive

Entry CNC(=O)c1cc(Oc2ccc3nc(NC(=O)Nc4ccc(CN5CCOCC5)c(C(F)(F)F)c4)sc3c2)ccn1 : call = ? active

Entry O=[N+]([O-])c1cc(Br)c2cccc3c2c1CC3 : call = ? inactive

Entry CC(=O)N1N=C(c2cccc(Nc3ccncc3)c2)CC1c1ccc2c(c1)OCO2 (stereo not given) : call = ? inactive

Entry O=C(OCC(O)(CO)C(=O)NC12CC3CC(CC(C3)C1)C2)c1ccc(Cl)cc1 (stereo not given) : call = ? inactive

Entry Cc1ccc(-c2nc(SCC(=O)c3ccc(C#N)cc3)[nH]c(=O)c2C#N)cc1 : call = ? inactive

* * *

tested on: NCI-H322M lung; test: NCI-60 one-dose screen, 48 h (100 = growth as untreated, 0 = no growth, -100 = all killed); conditions: 10 µM
About 83,000 compounds went through this panel and 20% of them were active in at least one assay; those are over-represented in the sample as a whole.
Cut-off 80% on growth: below means true, at or above means false.

Given the entry O=C(Nc1ccc(OCc2ccc(F)cc2)cc1)Nc1ccc(Cl)c(C(F)(F)F)c1 , would its reported growth be below 80%? true

Given the entry COc1ccc(C2c3sc4ccc(C)cc4c3Oc3nc(N)nc(N)c32)cc1 (stereo not drawn) , would its reported growth be below 80%? false

Given the entry COc1ccc(Cn2cc(C#N)c(N)c2C(C)=O)c(OC)c1 , would its reported growth be below 80%? false

Given the entry O=C(CN1CCN(c2ncnc3c2cnn3-c2ccccc2)CC1)Nc1ccc(Br)cc1 , would its reported growth be below 80%? true

Given the entry Cn1cc(/C=C(/SS/C(=C/c2cn(C)c3cccc(C(=O)O)c23)C(=O)O)C(=O)O)c2c(C(=O)O)cccc21 , would its reported growth be below 80%? false

Given the entry C#C[C@]1(O)CC[C@H]2[C@@H]3CC=C4c5sc(Nc6ccc(N(C)C)cc6)nc5CC[C@]4(C)[C@H]3CC[C@@]21C , would its reported growth be below 80%? true

Given the entry Fc1ccc(/C=C/c2nc3ccccc3n3c(-c4ccc(Cl)cc4)nnc23)cc1 , would its reported growth be below 80%? false

Given the entry Nc1nnc(-c2c[nH]c3ncc(Br)cc23)c(-c2c[nH]c3ccc(Br)cc23)n1 , would its reported growth be below 80%? true

Given the entry Cn1cc(-c2nc(N)nnc2-c2c[nH]c3ccccc23)c2cc(Br)cnc21 , would its reported growth be below 80%? true

Given the entry CC1(C)CC(=O)C2=C(C1)N(Cc1ccc(C(=O)O)cc1)C1=C(C(=O)CC(C)(C)C1)C2c1ccc(Cl)cc1 , would its reported growth be below 80%? false

Given the entry COc1cc(Nc2nc(O)c(/C=C3\C=Nc4ccccc43)s2)cc(OC)c1OC , would its reported growth be below 80%? true

Given the entry Fc1ccc(-c2csc(Nc3cccc(Nc4nc(-c5ccc(F)cc5)cs4)c3)n2)cc1 , would its reported growth be below 80%? true

Given the entry COc1ccc(-n2c(SCC(=O)NNS(=O)(=O)c3ccccc3)nc3ccc(Cl)cc3c2=O)cc1 , would its reported growth be below 80%? false

Given the entry COc1ccccc1-n1cc(C#N)c(N)c1C(=O)c1ccc(Cl)cc1Cl , would its reported growth be below 80%? true

Given the entry COc1cccc(O)c1/C=C1\SCc2cc3c(OC)cccc3[o+]c21 , would its reported growth be below 80%? false

Given the entry COc1cc2oc(-c3cccc(C(=O)Nc4ccc(Cl)cc4)c3)cc(=O)c2c(OCCN)c1OC , would its reported growth be below 80%? true

Given the entry CC1(C)CC[C@]2(C(=O)O)CC[C@]3(C)C(=CCC4[C@@]5(C)C[C@@H](O)[C@@H]6OC(c7cccc(F)c7)OC[C@@]6(C)C5CC[C@]43C)C2C1 (stereo partly drawn) , would its reported growth be below 80%? true

Given the entry COc1cccc(C(=O)CSc2nc(-c3ccc(OCc4ccccc4)c(OC)c3)c(C#N)c(=O)[nH]2)c1 , would its reported growth be below 80%? false
